Experiment: LTB4 receptor antagonist activity was determined by inhibition of specific binding of [3H]LTB4 in guinea pig lung membranes
pKi: −log10 of the molar value.

Entry Smiles	pKi
CCc1cc(-c2ccc(F)cc2)c(O)cc1OCCCOc1ccc2c(=O)c3cc(C(=O)O)ccc3oc2c1CCC(=O)O	10.40

----------
Biological target: Leukotriene B4 receptor 1 (Homo sapiens)
Sequence (Q15722 whole entry): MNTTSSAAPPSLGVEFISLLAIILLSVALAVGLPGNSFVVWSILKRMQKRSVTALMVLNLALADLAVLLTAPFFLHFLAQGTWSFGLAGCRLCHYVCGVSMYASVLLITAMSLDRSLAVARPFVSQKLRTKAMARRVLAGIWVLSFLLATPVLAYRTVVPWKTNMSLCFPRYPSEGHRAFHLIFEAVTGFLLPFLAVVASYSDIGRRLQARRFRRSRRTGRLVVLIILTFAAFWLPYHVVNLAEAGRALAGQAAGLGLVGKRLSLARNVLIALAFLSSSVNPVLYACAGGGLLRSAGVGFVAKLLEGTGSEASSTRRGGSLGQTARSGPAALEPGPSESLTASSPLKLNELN
Test: LTB4 receptor antagonist activity was determined by inhibition of specific binding of [3H]LTB4 in human neutrophil

Entry Smiles	Ki
CCc1cc(-c2ccc(F)cc2)c(O)cc1OCCCOc1cc(Oc2ccc(C(=O)O)cc2)ccc1CCC(=O)O	39 nM
